// data source = ChEMBL document CHEMBL1139238

molecular target: Xanthine dehydrogenase/oxidase (Rattus norvegicus) (UniProt P22985); assay: Inhibition of xanthine oxidase assessed as formation of formazan after 2 hrs by spectrophotometry; parameters: concentration or dose not given beside the values
Sequence (P22985 whole entry, looked up): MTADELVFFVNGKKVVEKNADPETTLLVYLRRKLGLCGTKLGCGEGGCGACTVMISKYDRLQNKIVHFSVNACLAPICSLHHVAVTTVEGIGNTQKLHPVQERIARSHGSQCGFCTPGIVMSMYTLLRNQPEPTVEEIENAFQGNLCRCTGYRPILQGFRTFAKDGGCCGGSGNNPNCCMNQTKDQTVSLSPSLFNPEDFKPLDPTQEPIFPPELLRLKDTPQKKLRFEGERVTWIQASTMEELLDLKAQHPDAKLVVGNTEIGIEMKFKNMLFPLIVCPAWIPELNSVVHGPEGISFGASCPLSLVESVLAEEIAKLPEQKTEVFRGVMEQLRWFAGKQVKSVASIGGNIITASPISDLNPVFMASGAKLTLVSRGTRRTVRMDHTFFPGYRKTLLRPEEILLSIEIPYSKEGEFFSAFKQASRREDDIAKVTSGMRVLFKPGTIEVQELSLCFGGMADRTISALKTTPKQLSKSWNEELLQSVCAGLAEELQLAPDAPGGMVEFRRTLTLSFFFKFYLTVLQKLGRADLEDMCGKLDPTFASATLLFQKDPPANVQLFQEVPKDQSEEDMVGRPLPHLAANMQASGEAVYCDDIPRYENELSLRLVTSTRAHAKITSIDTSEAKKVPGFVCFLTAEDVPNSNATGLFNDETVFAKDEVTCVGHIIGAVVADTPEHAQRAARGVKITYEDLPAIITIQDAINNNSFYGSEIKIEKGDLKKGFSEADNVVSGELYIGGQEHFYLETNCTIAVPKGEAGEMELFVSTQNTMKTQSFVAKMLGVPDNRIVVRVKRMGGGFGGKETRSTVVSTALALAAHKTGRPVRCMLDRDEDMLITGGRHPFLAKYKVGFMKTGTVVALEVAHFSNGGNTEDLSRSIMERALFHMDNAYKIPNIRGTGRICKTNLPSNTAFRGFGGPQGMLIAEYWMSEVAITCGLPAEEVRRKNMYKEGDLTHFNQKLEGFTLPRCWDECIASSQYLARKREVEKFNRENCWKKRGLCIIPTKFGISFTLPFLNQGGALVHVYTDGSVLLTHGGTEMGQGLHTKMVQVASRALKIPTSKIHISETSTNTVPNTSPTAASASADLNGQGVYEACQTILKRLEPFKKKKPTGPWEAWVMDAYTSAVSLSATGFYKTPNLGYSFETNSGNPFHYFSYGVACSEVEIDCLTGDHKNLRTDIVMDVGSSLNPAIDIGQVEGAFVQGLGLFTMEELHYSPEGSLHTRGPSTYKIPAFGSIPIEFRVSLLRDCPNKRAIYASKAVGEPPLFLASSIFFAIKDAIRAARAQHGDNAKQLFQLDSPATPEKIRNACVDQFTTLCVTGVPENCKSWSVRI
experimental-endpoint: Activity (%)
Write the answer as a number in %, unit excluded.

Check out these entries, answers already filled in.
[[record]]
compound = "COc1ccc([C@@H]2Oc3cc(OC)c(OC)c(OC)c3C(=O)[C@@H]2O)cc1OC (racemic)"
experimental_endpoint = "Activity"
quantity_unit = "%"
numeric_result = 46.6

[[record]]
compound = "COc1cc([C@@H]2Oc3cc(OC)c(O)c(OC)c3C(=O)[C@@H]2O)ccc1O (racemic)"
experimental_endpoint = "Activity"
quantity_unit = "%"
numeric_result = 15.4


Now, please, on to the next compound.
Task: Please supply the value of reported Activity for the item COc1ccc([C@@H]2Oc3cc(OC)c(O)c(OC)c3C(=O)[C@@H]2O)cc1OC (racemic)
Output: 74.3
